measured-endpoint: melting point

Recorded melting point, per entry:
Prompt line: Query (compound): Cc1cc2c(cc1C(=O)N1CCOC(c3ccccc3)C1)[nH]c(=O)c1cnc(C3CCCC3)n12 (centres unmarked) ; field requested: melting point
Response line: 304 to 305 °C

Prompt line: Query (compound): `COc1cc2c(cc1C(=O)N1Cc3ccccc3C1)[nH]c(=O)c1cnc(C3CCOCC3)n12.Cl` ; field requested: melting point
Response line: 199 to 201 °C (dec.)

Prompt line: Query (compound): `COCc1cc2c(cc1C(=O)N1CCc3cc(Cl)ccc31)[nH]c(=O)c1cnc(C3CCOCC3)n12.Cl` ; field requested: melting point
Response line: 298 to 301 °C (dec.)

Prompt line: Query (compound): `COCc1cc2c(cc1C(=O)N1CCc3ncccc3C1)[nH]c(=O)c1cnc(C3CCOCC3)n12` ; field requested: melting point
Response line: 172 to 175 °C

Prompt line: Query (compound): `Cc1cc2c(cc1C(=O)N1Cc3cccc(C4CC4)c3C1)[nH]c(=O)c1cnc(C3CCOCC3)n12.Cl` ; field requested: melting point
Response line: 286 °C (dec.)

New cases:
Prompt line: Query (compound): `COCc1cc2c(cc1C(=O)N1CCc3cc(Cl)ccc31)[nH]c(=O)c1nnc(CC3CC3)n12.Cl` ; field requested: melting point
Response line: 257 °C (dec.)

Prompt line: Query (compound): Cc1cc2c(cc1C(=O)N1CCc3onc(-c4ccc(F)cc4)c3C1)[nH]c(=O)c1nnc(C3CCOC3)n12 (centres unmarked) ; field requested: melting point
Response line: 282 to 284 °C (dec.)

Prompt line: Query (compound): `Cc1cc2c(cc1C(=O)N1CCc3cc(Cl)ccc31)[nH]c(=O)c1nnc(C3CC(F)(F)C3)n12` ; field requested: melting point
Response line: 243 to 245 °C

###

As shown below, each of these compounds has a reported melting point value.

Recorded melting point, per entry:
Prompt line: Query (compound): `COc1cc2c(cc1C(=O)N1CCc3cc(C)cnc31)[nH]c(=O)c1cnc(C3CCOCC3)n12` ; field requested: melting point
Response line: 288 °C (dec.)

Prompt line: Query (compound): `COCc1cc2c(cc1C(=O)N1CCc3cc(F)c(F)cc31)[nH]c(=O)c1nnc(C3CCOCC3)n12.Cl` ; field requested: melting point
Response line: 266 to 269 °C

Prompt line: Query (compound): `Cc1cc2c(cc1C(=O)N1CCc3ccccc3CC1)[nH]c(=O)c1nnc(C3CCOCC3)n12.Cl` ; field requested: melting point
Response line: 212 to 215 °C

Prompt line: Query (compound): `CCCc1nnc2c(=O)[nH]c3cc(C(=O)N4CCN(c5ccccc5Cl)CC4)c(C)cc3n12` ; field requested: melting point
Response line: 186 to 188 °C

Prompt line: Query (compound): `Cc1ccc2c(c1)CCN2C(=O)c1cc2[nH]c(=O)c3cnc(C4CCOCC4)n3c2cc1C.Cl` ; field requested: melting point
Response line: 282 to 284 °C

New cases:
Prompt line: Query (compound): `Cc1cc2c(cc1C(=O)N1Cc3cccc(Cl)c3C1)[nH]c(=O)c1nnc(C3CCOCC3)n12` ; field requested: melting point
Response line: 329 °C (dec.)

Prompt line: Query (compound): `Cc1cc2c(cc1C(=O)N1Cc3ccccc3C1)[nH]c(=O)c1c(C)nc(C3CCOCC3)n12.Cl` ; field requested: melting point
Response line: 335 °C (dec.)

Prompt line: Query (compound): Cc1cc2c(cc1C(=O)N1CCc3cccnc31)[nH]c(=O)c1nnc(C3CCOC3)n12.Cl (centres unmarked) ; field requested: melting point
Response line: 210 to 211 °C (dec.)
